# Test system: TDO2 (Homo sapiens, UniProt P48775)
# Construct: decreased levels of NFK in SW48 cells (high TDO expressing cells)
# Sequence (P48775 whole entry): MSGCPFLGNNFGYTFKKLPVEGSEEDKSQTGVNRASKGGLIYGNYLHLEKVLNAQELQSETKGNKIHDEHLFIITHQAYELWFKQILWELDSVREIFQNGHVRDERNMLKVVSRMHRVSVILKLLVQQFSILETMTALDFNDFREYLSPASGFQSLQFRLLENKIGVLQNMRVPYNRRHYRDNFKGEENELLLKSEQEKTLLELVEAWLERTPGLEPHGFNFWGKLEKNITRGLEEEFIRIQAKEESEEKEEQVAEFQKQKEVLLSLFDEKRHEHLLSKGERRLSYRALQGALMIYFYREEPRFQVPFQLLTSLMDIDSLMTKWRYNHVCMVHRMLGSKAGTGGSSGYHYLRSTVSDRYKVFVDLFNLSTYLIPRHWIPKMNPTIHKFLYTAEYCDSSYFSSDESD
# Test summary: TDO2 cell assay (NFK GreenScreen, SW48 cells)
# Type: cell-based
# Test context: SW48 cells (high TDO expressing), 200 uM tryptophan, 24 hours; Table 3; read-out: TDO2 Cell Fluor EC50
I'd appreciate it if you marked entries TRUE when EC50 is lower than 1 µM and FALSE when it is not.

INSERT INTO assay_data (compound, test_system, assigned_category) VALUES
  ('OC1C(C2c3ccccc3-c3cncn32)CCC12CCOCC2 (single isomer, unassigned) [Example 68b]', 'TDO2 (Homo sapiens, UniProt P48775)', 'FALSE'),
  ('CC(C)S(=O)(=O)N1CCC(C2c3ccccc3-c3cncn32)C(O)C1 (single isomer, unassigned) [Example 89a]', 'TDO2 (Homo sapiens, UniProt P48775)', 'FALSE'),
  ('OC1C(C2c3ccccc3-c3cncn32)CC12CCOCC2 (single isomer, unassigned) [Example 57g]', 'TDO2 (Homo sapiens, UniProt P48775)', 'TRUE'),
  ('N#CC1CCC(O)(C2c3ccccc3-c3cncn32)CC1 (single isomer, unassigned) [Example 145c]', 'TDO2 (Homo sapiens, UniProt P48775)', 'FALSE'),
  ('OC1c2ccccc2CCC1C1c2ccccc2-c2cncn21 (single isomer, unassigned) [Example 102a]', 'TDO2 (Homo sapiens, UniProt P48775)', 'TRUE'),
  ('N#Cc1ccc2c(c1)C(O)C(C1c3ccccc3-c3cncn31)CC2 (single isomer, unassigned) [Example 113f]', 'TDO2 (Homo sapiens, UniProt P48775)', 'TRUE'),
  ('O[C@@H]1COCC[C@H]1[C@H]1c2c(F)cccc2-c2cncn21 [Example 120a]', 'TDO2 (Homo sapiens, UniProt P48775)', 'FALSE'),
  ('CS(=O)(=O)c1ccc2c(c1)CCC(C1c3ccccc3-c3cncn31)C2O (single isomer, unassigned) [Example 36g]', 'TDO2 (Homo sapiens, UniProt P48775)', 'FALSE'),
  ('OC1c2cnccc2CC1C1c2ccccc2-c2cncn21 (single isomer, unassigned) [Example 71bb]', 'TDO2 (Homo sapiens, UniProt P48775)', 'TRUE'),
  ('CS(=O)(=O)N1CCC(O)C(C2c3ccccc3-c3cncn32)CC1 (single isomer, unassigned) [Example 92c]', 'TDO2 (Homo sapiens, UniProt P48775)', 'FALSE'),
  ('OC1COCCC1C1c2c(Cl)cccc2-c2cncn21 (single isomer, unassigned) [Example 69-1b]', 'TDO2 (Homo sapiens, UniProt P48775)', 'FALSE'),
  ('O[C@H]1CC[C@@H]1[C@H]1c2ccccc2-c2cncn21 [Example 01e]', 'TDO2 (Homo sapiens, UniProt P48775)', 'FALSE'),
  ('O[C@@H](C1CCOCC1)[C@@H]1c2ccccc2-c2cncn21 (single isomer, unassigned) [Example 138d]', 'TDO2 (Homo sapiens, UniProt P48775)', 'FALSE'),
  ('NC(=O)c1ccc2c(c1)C(O)C(C1c3ccccc3-c3cncn31)CC2 (single isomer, unassigned) [Example 122a]', 'TDO2 (Homo sapiens, UniProt P48775)', 'TRUE'),
  ('OC1COCCC1C1c2c(Cl)cccc2-c2cncn21 (single isomer, unassigned) [Example 69-1a]', 'TDO2 (Homo sapiens, UniProt P48775)', 'FALSE'),
  ('CS(=O)(=O)N1CCC(C2c3ccc(F)cc3-c3cncn32)C(O)C1 (single isomer, unassigned) [Example 119a]', 'TDO2 (Homo sapiens, UniProt P48775)', 'FALSE'),
  ('CC1(C)OC(C)(C)C(C2c3ccccc3-c3cncn32)C1O (single isomer, unassigned) [Example 84c]', 'TDO2 (Homo sapiens, UniProt P48775)', 'FALSE'),
  ('OC1C(C2c3ccccc3-c3cncn32)CCC12CCOCC2 (single isomer, unassigned) [Example 68g]', 'TDO2 (Homo sapiens, UniProt P48775)', 'FALSE'),
  ('OC1CC2(COC2)C1C1c2ccccc2-c2cncn21 (single isomer, unassigned) [Example 87e]', 'TDO2 (Homo sapiens, UniProt P48775)', 'FALSE'),
  ('NS(=O)(=O)c1ccc2c(c1)CCC(C1c3ccccc3-c3cncn31)C2O (single isomer, unassigned) [Example 100d]', 'TDO2 (Homo sapiens, UniProt P48775)', 'FALSE'),
  ('N#Cc1ccc2c(c1)CCC(C1c3ccccc3-c3cncn31)C2O (single isomer, unassigned) [Example 62g]', 'TDO2 (Homo sapiens, UniProt P48775)', 'FALSE'),
  ('OC1(C2c3ccccc3-c3cncn32)CCOCC1 (racemic)', 'TDO2 (Homo sapiens, UniProt P48775)', 'FALSE'),
  ('Cc1cc2n(n1)CCC(C1c3ccccc3-c3cncn31)C2O (single isomer, unassigned) [Example 166b]', 'TDO2 (Homo sapiens, UniProt P48775)', 'TRUE'),
  ('NS(=O)(=O)c1ccc2c(c1)CCC(C1c3ccccc3-c3cncn31)C2O (single isomer, unassigned) [Example 100f]', 'TDO2 (Homo sapiens, UniProt P48775)', 'FALSE'),
  ('OC1c2ccccc2CC1C1c2ccccc2-c2cncn21 (single isomer, unassigned) [Example 19b]', 'TDO2 (Homo sapiens, UniProt P48775)', 'TRUE'),
  ('N#CC1(C(O)C2c3ccccc3-c3cncn32)CC1 (single isomer, unassigned) [Example 153a]', 'TDO2 (Homo sapiens, UniProt P48775)', 'TRUE'),
  ('OC1CCOCC1C1c2cccc(F)c2-c2cncn21 (single isomer, unassigned) [Example 170a]', 'TDO2 (Homo sapiens, UniProt P48775)', 'FALSE'),
  ('OC1CCOCC1C1c2cc(F)ccc2-c2cncn21 (single isomer, unassigned) [Example 75d]', 'TDO2 (Homo sapiens, UniProt P48775)', 'TRUE');
